Tested target: T1, human PCSK9 D374Y gain-of-function mutant (human, UniProt Q8NBP7 31-692)
T1 construct: It was AF647-labelled in the HepG2 cell-based assay and unlabelled in SPR; also called Human PCSK9 GOF; hPCSK9 GOF
Run description: ProteOn SPR, captured antibody, pH 7.6;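 note: antibodies captured via anti-human Fc on a GLC sensor chip, PCSK9 binding sensorgrams fitted to a 1:1 Langmuir model giving on and off rates, with KD derived from them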
Quantity: koff (s⁻¹)
Express your answer in s⁻¹, writing the number without its unit.

CL-148219 (antibody, V domains shown, NLT motif in heavy chain framework 3 confirmed N-glycosylated by mass spectrometry, Human antibody, captured through anti-human Fc in the SPR assay) VH: QVHLQESGPGLVKPSETLSLTCTVSGGSISSYYWSWIRQYPGKGLEWIGYISYSGSSNYNPSLKRRVTISRDTSKNQFSLNLTSVIAADTAVYYCARNLMIRGAYGMDVWGQGTTVTVSS VL: DTVMTQSPLSLPVTPGEPASISCRSSQSLLHSNGYNYLDWYLQKAGQSPQLLIYLGSNRASGVPDRFSGSVSGTDFTLKISRVEAEDVGIYYCMQALQTPFTFGPGTKVDIK = 0.000233

Quick one: koff for CL-148489 (antibody, V domains shown, Human antibody with a kappa light chain) VH: EVQLVESGGGLVQPGRSLRLSCTASGFTFADYVMHWVRQTPGKGLEWVSGISWNSYSINYADSVKGRFTISRDNAQNSLYLQMNSLRAEDTALYFCAKDITYDLLTGYNYNYGLDVWGQGTTVTVSS VL: DIVMTQTPLSLSVTPGQPASISCRSSQSLLHSDGKTYLYWYLQKPGQPPQLLIYEVSNRFSGVPDRFSGSGSGTDFTLKISRVEAEDVGLYYCMQSIQLPLTFGGGTKVEIK ?
0.000129

// lookup koff for CL-148219 QLT mutant (antibody, V domains shown) VH: QVHLQESGPGLVKPSETLSLTCTVSGGSISSYYWSWIRQYPGKGLEWIGYISYSGSSNYNPSLKRRVTISRDTSKNQFSLQLTSVIAADTAVYYCARNLMIRGAYGMDVWGQGTTVTVSS VL: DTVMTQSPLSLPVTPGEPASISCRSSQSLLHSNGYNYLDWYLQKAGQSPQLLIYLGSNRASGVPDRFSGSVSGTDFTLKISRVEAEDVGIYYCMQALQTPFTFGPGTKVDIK
0.000219

Name the reported koff value associated with the binder CL-274698 (antibody, V domains shown, Human antibody with a kappa light chain, derived from a PCSK9 knockout mouse) VH: QVQLQESGPGLVKPSGTLSLTCAVSGGSISSSKWWSWVRQPPGKGLEWIGETHYSGSTNYNPSLKSRVTISVDKSKNQFSLKLRSVTAADTAVYYCARVGATENFWGQGTLVTVSS VL: EIVLTQSPATLSLSPGERATLSCRASQSVFRYLAWYQQKPGQAPRLLIYDASTRATDIPARFSGSGSGTDFTLTISSLEPEDFAVYYCQQRSNWPPTFGQGTKVEIK
8.36e-05
